Details: 338.15 K; 100 kPa; Liquid; Vibrating tube method
± gives the expanded uncertainty stated by the source.
property_measured: mass density
Please append the unit to your numeric answer.

Form field: reported mass density of CCCC[n+]1ccn(C)c1.O=S(=O)([N-]S(=O)(=O)C(F)(F)F)C(F)(F)F
1399.4 ± 4 kg/m3

###

Experiment: xn = mol fraction of the nth substance listed
Conditions: 308.15 K; 100 kPa; Liquid; Cone and plate viscometry; x1 = 0.2
Numbers after ± are expanded uncertainties.
property_measured: viscosity
# do not omit the unit; it follows the number

Check out these entries, answers already filled in.
# molecule, reported_measurement
data = [
    ("CCCCCCCCCCCCCC[P+](CCCCCC)(CCCCCC)CCCCCC.N#Cc1ccc[n-]1 [trihexyl(tetradecyl)phosphonium 2-cyanopyrrolide] + CCCCCC[n+]1ccn(C)c1.O=S(=O)([N-]S(=O)(=O)C(F)(F)F)C(F)(F)F", "88 ± 11 mPa·s"),
    ("CCCCCCCCCCCCCC[P+](CCCCCC)(CCCCCC)CCCCCC.O=[N+]([O-])c1cn[n-]c1 [trihexyl(tetradecyl)phosphonium 4-nitropyrazolide] + CCCCCC[n+]1ccn(C)c1.O=S(=O)([N-]S(=O)(=O)C(F)(F)F)C(F)(F)F", "88 ± 11 mPa·s"),
    ("CCCCCCn1cc[n+](C)c1.N#Cc1ccc[n-]1 [1-hexyl-3-methylimidazolium 2-cyanopyrrolide] + CCCCCCCCCCCCCC[P+](CCCCCC)(CCCCCC)CCCCCC.O=S(=O)([N-]S(=O)(=O)C(F)(F)F)C(F)(F)F", "185 ± 23 mPa·s"),
]

# get_value(readout='viscosity', item= CCCCCCCCCCCCCC[P+](CCCCCC)(CCCCCC)CCCCCC.O=S(=O)([N-]S(=O)(=O)C(F)(F)F)C(F)(F)F + CCCCCC[n+]1ccn(C)c1.O=S(=O)([N-]S(=O)(=O)C(F)(F)F)C(F)(F)F )
74 ± 9 mPa·s

###

Experiment: xn = mol fraction of the nth substance listed
Conditions: 293.15 K; 100 kPa; Liquid; Cone and plate viscometry; x1 = 0.5
± gives the expanded uncertainty stated by the source.
property_measured: viscosity
Write the numeric value and follow it with the unit.

# molecule, viscosity
rows = [
    ("CCCCCCCC[P+](CC)(CC)CC.O=[N+]([O-])c1cn[n-]c1 [triethyloctylphosphonium 4-nitropyrazolide] + CCCCCCn1cc[n+](C)c1C.O=S(=O)([N-]S(=O)(=O)C(F)(F)F)C(F)(F)F", "338 ± 43 mPa·s"),
]

Need viscosity, item CCCCCCCCCCCCCC[P+](CCCCCC)(CCCCCC)CCCCCC.N#Cc1ccc[n-]1 [trihexyl(tetradecyl)phosphonium 2-cyanopyrrolide] + CCCCCCn1cc[n+](C)c1C.O=S(=O)([N-]S(=O)(=O)C(F)(F)F)C(F)(F)F
488 ± 63 mPa·s

Can you share its viscosity? I mean this molecule: CCCCCCn1cc[n+](C)c1C.O=[N+]([O-])c1cn[n-]c1 [1-hexyl-2,3-dimethylimidazolium 4-nitropyrazolide] + CCCCCCCCCCCCCC[P+](CCCCCC)(CCCCCC)CCCCCC.O=S(=O)([N-]S(=O)(=O)C(F)(F)F)C(F)(F)F
636 ± 83 mPa·s

Would you mind telling me what viscosity value was observed for CCCCCCC[P+](CC)(CC)CC.O=[N+]([O-])c1cn[n-]c1 [triethylheptylphosphonium 4-nitropyrazolide] + CC[P+](CC)(CC)COCCOC.O=S(=O)([N-]S(=O)(=O)C(F)(F)F)C(F)(F)F ?
96 ± 12 mPa·s

Query (molecule): CCCCCCn1cc[n+](C)c1.O=[N+]([O-])c1cn[n-]c1 [1-hexyl-3-methylimidazolium 4-nitropyrazolide] + CCCCCCCCCCCCCC[P+](CCCCCC)(CCCCCC)CCCCCC.O=S(=O)([N-]S(=O)(=O)C(F)(F)F)C(F)(F)F ; field requested: viscosity
492 ± 63 mPa·s

Cited source: the NIST ThermoML archive (doi:10.1021/acs.jced.7b00221)
